Test system: Sam68 (KHDRBS1)
Assay: Sam68 small-molecule binders, primary screen, biochemical, small-molecule microarray, 635 nm fluorescence (AID 1125);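 note: score merges 667 nm channel intensity with signal to noise over triplicate slides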
Conditions: small-molecule microarray binding, higher = more signal
Collected composite z-score values appear next to each entry.
Keep the answer to the number alone.

compound: COCCOC(=O)N1C(=O)[C@@]2(c3cc(C#CC4=CCCCC4)ccc31)[C@H](c1ccc(OCCO)cc1)N1[C@H](c3ccccc3)[C@H](c3ccccc3)OC(=O)[C@H]1[C@@H]2C(=O)NC[C@H](O)c1ccccc1
target entity: Sam68 (KHDRBS1)
experimental result: 1.31
--
compound: O=C1N(Cc2ccccc2)c2ccccc2[C@@H]2OC(c3ccc(OCCCO)cc3)=N[C@]12Cc1ccccc1
target entity: Sam68 (KHDRBS1)
experimental result: 1.3
--
compound: C=CC1c2cc(O)c(OC)cc2CCN1Cc1cc2c(cc1Br)OCO2 (configuration not stated)
target entity: Sam68 (KHDRBS1)
experimental result: 0.342

Ask: Form field - read-out: composite z-score; system: Sam68 (KHDRBS1); submitted item: O=C1NC(=O)C2C1C=CC(C(O)c1cccc3ccccc13)N2Nc1ccc(Cl)cc1Cl (configuration not stated)
Reply: 0.762

Ask: Given the entry O=C1OCC=C[C@H]2OC34C=CCN(Cn5nnc6ccccc65)C(=O)[C@H]3N(CCCO)C(=O)[C@@H]4[C@@H]12 (some centres not stated) , what composite z-score was observed with Sam68 (KHDRBS1)?
Reply: -0.196

Ask: # query: composite z-score | item C=C(COC)/C(=C/C[C@H](OC(=O)c1ccncc1)c1ccccc1OCCO)c1cnc2ccccc2c1 | system: Sam68 (KHDRBS1)
Reply: 1.29

Ask: What value of composite z-score on Sam68 (KHDRBS1) does COc1ccc(CCN2C(=O)[C@@]3(Cc4ccccc42)c2ccccc2C(=O)N(Cc2ccccc2OC)[C@H]3c2ccc(CO)cc2)cc1 have?
Reply: -0.232

----------
Biological target: Homeobox protein Hox-A13 (Mus musculus)
Experiment: inhibitors of HoxA13-DNA binding, primary screen, biochemical, fluorescence polarization, labeled oligonucleotide (AID 1185)
Details: 15 min, higher = more signal, called active from +8 up or from −8 down
Active and inactive are the calls of the source.
test readout: z-score

Some molecules with known z-score results, for comparison:
query smiles: COCCOC(=O)N1C(=O)[C@@]2(c3cc(C#CC4=CCCCC4)ccc31)[C@H](C(N)=O)[C@H]1C(=O)O[C@H](c3ccccc3)[C@H](c3ccccc3)N1[C@@H]2c1ccccc1OCCO
test readout: z-score
experimental result: -1.26 (inactive)

query smiles: C=C(/C(=C/C[C@H](OC(C)=O)c1ccccc1OCCO)c1cc(C(=O)OC)ccc1OC)C(C)C
test readout: z-score
experimental result: -4.07 (inactive)

query smiles: CC(C)C[C@@H]1NC(=O)[C@@H]2C[C@H](C(=O)NCCCCN(C)C)[C@H](c3cccc(OCCO)c3)N2C1=O
test readout: z-score
experimental result: -3.41 (inactive)

query smiles: O=C(CS)NCCCCCNC(=O)[C@@H]1C[C@@H]2C(=O)N3CCC[C@H]3C(=O)N2[C@@H]1c1cccc(OCCO)c1
test readout: z-score
experimental result: -3.61 (inactive)

query smiles: CCOC(=O)C[C@H]1[C@H](OC(=O)c2ccccc2-c2ccccc2)[C@@H](NC(=O)C2CCCCC2)c2cc(OCCCO)ccc2N1C(=O)Cc1ccc(OC)cc1
test readout: z-score
experimental result: -3.62 (inactive)

// next entry
Ask: Look at this molecule and give its reported z-score. COCCOC(=O)N1C(=O)[C@@]2(c3cc(C#CC4=CCCCC4)ccc31)[C@H](c1ccc(OCCO)cc1)N1[C@H](c3ccccc3)[C@H](c3ccccc3)OC(=O)[C@H]1[C@@H]2C(=O)N1CCN(c2ncccn2)CC1
Reply: 2.06 (inactive)

Source listed as PubChem BioAssay.
